# assay notes: total protein half-life in vivo (active degradation + dilution); higher = more stable protein
# run parameters: wild type E. coli NCM3722; growth: P-lim chemostat; doubling time 12 h
# cutoff 10 h applies to total protein half-life in vivo; >= gives met, < gives not met

Solved cases (9 shown):
{"columns": ["ordered residues", "group label"],
 "data": [
  ["MLYIFDLGNVIVDIDFNRVLGAWSDLTRIPLASLKKSFHMGEAFHQHERGEISDEAFAEALCHEMALPLSYEQFSHGWQAVFVALRPEVIAIMHKLREQGHRVVVLSNTNRLHTTFWPEEYPEIRDAADHIYLSQDLGMRKPEARIYQHVLQAEGFSPSDTVFFDDNADNIEGANQLGITSILVKDKTTIPDYFAKVLC [P0A8Y3]", "not met"],
  ["MTTRVIALDLDGTLLTPKKTLLPSSIEALARAREAGYQLIIVTGRHHVAIHPFYQALALDTPAICCNGTYLYDYHAKTVLEADPMPVIKALQLIEMLNEHHIHGLMYVDDAMVYEHPTGHVIRTSNWAQTLPPEQRPTFTQVASLAETAQQVNAVWKFALTHDDLPQLQHFGKHVEHELGLECEWSWHDQVDIARGGNSKGKRLTKWVEAQGWSMENVVAFGDNFNDISMLEAAGTGVAMGNADDAVKARANIVIGDNTTDSIAQFIYSHLI", "not met"],
  ["MATAKKITIHDVALAAGVSVSTVSLVLSGKGRISTATGERVNAAIEELGFVRNRQASALRGGQSGVIGLIVRDLSAPFYAELTAGLTEALEAQGRMVFLLHGGKDGEQLAQRFSLLLNQGVDGVVIAGAAGSSDDLRRMAEEKAIPVIFASRASYLDDVDTVRPDNMQAAQLLTEHLIRNGHQRIAWLGGQSSSLTRAERVGGYCATLLKFGLPFHSDWVLECTSSQKQAAEAITALLRHNPTISAVVCYNETIAMGAWFGLLKAGRQSGESGVDRYFEQQVSLAAFTDATPTTLDDIPVTWASTPARELGITLADRMMQKITHEETHSRNLIIPARLIAAK", "not met"],
  ["MMNPLIIKLGGVLLDSEEALERLFSALVNYRESHQRPLVIVHGGGCVVDELMKGLNLPVKKKNGLRVTPADQIDIITGALAGTANKTLLAWAKKHQIAAVGLFLGDGDSVKVTQLDEELGHVGLAQPGSPKLINSLLENGYLPVVSSIGVTDEGQLMNVNADQAATALAATLGADLILLSDVSGILDGKGQRIAEMTAAKAEQLIEQGIITDGMIVKVNAALDAARTLGRPVDIASWRHAEQLPALFNGMPMGTRILA [P0A6C8]", "not met"],
  ["MSHPALTQLRALRYCKEIPALDPQLLDWLLLEDSMTKRFEQQGKTVSVTMIREGFVEQNEIPEELPLLPKESRYWLREILLCADGEPWLAGRTVVPVSTLSGPELALQKLGKTPLGRYLFTSSTLTRDFIEIGRDAGLWGRRSRLRLSGKPLLLTELFLPASPLY", "not met"],
  ["MEISFTRVALLAAALFFVGCDQKPQPAKTHATEVTVLEGKTMGTFWRASIPGIDAKRSAELKEKIQTQLDADDQLLSTYKKDSALMRFNDSQSLSPWPVSEAMADIVTTSLRIGAKTDGAMDITVGPLVNLWGFGPEQQPVQIPSQEQIDAMKAKTGLQHLTVINQSHQQYLQKDLPDLYVDLSTVGEGYAADHLARLMEQEGISRYLVSVGGALNSRGMNGEGLPWRVAIQKPTDKENAVQAVVDINGHGISTSGSYRNYYELDGKRLSHVIDPQTGRPIEHNLVSVTVIAPTALEADAWDTGLMVLGPEKAKEVVRREGLAVYMITKEGDSFKTWMSPQFKSFLVSEKN [P0AB85]", "met"],
  ["MSERLSITPLGPYIGAQISGADLTRPLSDNQFEQLYHAVLRHQVVFLRDQAITPQQQRALAQRFGELHIHPVYPHAEGVDEIIVLDTHNDNPPDNDNWHTDVTFIETPPAGAILAAKELPSTGGDTLWTSGIAAYEALSVPFRQLLSGLRAEHDFRKSFPEYKYRKTEEEHQRWREAVAKNPPLLHPVVRTHPVSGKQALFVNEGFTTRIVDVSEKESEALLSFLFAHITKPEFQVRWRWQPNDIAIWDNRVTQHYANADYLPQRRIMHRATILGDKPFYRAG", "not met"],
  ["MKKIGVILSGCGVYDGSEIHEAVLTLLAISRSGAQAVCFAPDKQQVDVINHLTGEAMTETRNVLIEAARITRGEIRPLAQADAAELDALIVPGGFGAAKNLSNFASLGSECTVDRELKALAQAMHQAGKPLGFMCIAPAMLPKIFDFPLRLTIGTDIDTAEVLEEMGAEHVPCPVDDIVVDEDNKIVTTPAYMLAQNIAEAASGIDKLVSRVLVLAE [P0ABU5]", "met"],
  ["MRTVKVFEEAWPLHTPFVIARGSRSEARVVVVELEEEGIKGTGECTPYPRYGESDASVMAQIMSVVPQLEKGLTREELQKILPAGAARNALDCALWDLAARRQQQSLADLIGITLPETVITAQTVVIGTPDQMANSASTLWQAGAKLLKVKLDNHLISERMVAIRTAVPDATLIVDANESWRAEGLAARCQLLADLGVAMLEQPLPAQDDAALENFIHPLPICADESCHTRSNLKALKGRYEMVNIKLDKTGGLTEALALATEARAQGFSLMLGCMLCTSRAISAALPLVPQVSFADLDGPTWLAVDVEPALQFTTGELHL", "met"]
]}

For the next question, use this sequence.
Confirm if total protein half-life in vivo reported for the sequence MILIIYAHPYPHHSHANKRMLEQARTLEGVEIRSLYQLYPDFNIDIAAEQEALSRADLIVWQHPMQWYSIPPLLKLWIDKVFSHGWAYGHGGTALHGKHLLWAVTTGGGESHFEIGAHPGFDVLSQPLQATAIYCGLNWLPPFAMHCTFICDDETLEGQARHYKQRLLEWQEAHHG [P0A754] is 10 h or above.
met
